Reported log10 of IC50 values for a set of compounds
Biological target: TgCDPK1 (Toxoplasma gondii, UniProt Q9BJF5)
Sequence (Q9BJF5 1-507): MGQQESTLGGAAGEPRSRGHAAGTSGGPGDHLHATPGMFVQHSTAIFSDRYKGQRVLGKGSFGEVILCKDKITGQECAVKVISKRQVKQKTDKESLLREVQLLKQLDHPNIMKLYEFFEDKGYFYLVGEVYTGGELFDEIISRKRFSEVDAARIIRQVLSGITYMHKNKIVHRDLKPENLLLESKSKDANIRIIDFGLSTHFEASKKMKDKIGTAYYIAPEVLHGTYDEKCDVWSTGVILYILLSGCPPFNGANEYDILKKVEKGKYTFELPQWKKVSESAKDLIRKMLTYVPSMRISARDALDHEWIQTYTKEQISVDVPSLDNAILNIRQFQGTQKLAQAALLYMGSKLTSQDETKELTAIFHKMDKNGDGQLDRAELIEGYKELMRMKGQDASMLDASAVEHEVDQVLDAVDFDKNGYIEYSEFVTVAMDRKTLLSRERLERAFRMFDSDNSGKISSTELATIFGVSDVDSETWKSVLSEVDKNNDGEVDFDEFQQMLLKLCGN
Type: biochemical
Details: read-out: IC50 (μM) TgCDPK1
The common logarithm of IC50 in µM is what is listed.

{"compound": "CC(C)n1nc(-c2cccc(OCc3ccccc3)c2)c2c(N)ncnc21 [Compound 7aa]", "log10 of IC50": 0.03}
{"compound": "CC(C)n1nc(-c2ccc3c(c2)CCCO3)c2c(N)ncnc21 [Compound 7w]", "log10 of IC50": -1.77}
{"compound": "CCC(=O)Nc1ccc(-c2nn(C(C)(C)C)c3ncnc(N)c23)cc1 [Compound 67]", "log10 of IC50": -0.71}
{"compound": "CC(C)n1nc(Cc2ccc3ccccc3c2)c2c(N)ncnc21 [Compound 14]", "log10 of IC50": -0.20}
{"compound": "CC(C)n1nc(-c2cccc(Cc3ccccc3)c2)c2c(N)ncnc21 [Compound 7y]", "log10 of IC50": -0.49}
{"compound": "CC(C)(C)n1nc(-c2ccc(NC(=O)Cc3ccccc3)cc2)c2c(N)ncnc21 [Compound 66]", "log10 of IC50": -0.75}

Turning now to a further record.
Ask: # return recorded log10 of IC50 for entry CC(C)(C)C(=O)Nc1ccc(-c2nn(C(C)(C)C)c3ncnc(N)c23)cc1 [Compound 60]
Reply: -1.18

---

Biological target: CpCDPK1 (Cryptosporidium parvum (strain Iowa II), UniProt A3FQ16)
Sequence (A3FQ16 1-538): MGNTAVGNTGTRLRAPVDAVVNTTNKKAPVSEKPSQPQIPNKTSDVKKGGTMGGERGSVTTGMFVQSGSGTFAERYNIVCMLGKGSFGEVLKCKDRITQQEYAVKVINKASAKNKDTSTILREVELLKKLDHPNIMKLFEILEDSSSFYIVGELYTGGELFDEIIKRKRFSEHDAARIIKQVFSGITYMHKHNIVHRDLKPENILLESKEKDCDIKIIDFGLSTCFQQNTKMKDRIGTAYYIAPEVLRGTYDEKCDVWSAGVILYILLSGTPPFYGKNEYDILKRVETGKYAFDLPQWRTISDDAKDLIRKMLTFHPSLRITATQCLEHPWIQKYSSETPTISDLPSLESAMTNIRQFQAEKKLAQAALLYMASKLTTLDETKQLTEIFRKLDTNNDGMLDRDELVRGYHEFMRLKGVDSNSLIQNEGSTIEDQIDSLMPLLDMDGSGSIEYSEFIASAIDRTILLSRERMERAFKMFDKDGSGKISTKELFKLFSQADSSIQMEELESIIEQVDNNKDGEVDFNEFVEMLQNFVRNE
Test: biochemical
Format: biochemical
Conditions: Table 4; average of three assays ± (SEM); read-out: CpCDPK1 IC50
test.readout: IC50

Ask: Dear colleague, please send me the reported IC50 for CC(C)n1nc(-c2cccc3c2sc2ccccc23)c2c(N)ncnc21 when you can.
Reply: > 3000 nM

---

Biological target: PfCDPK4 (Plasmodium falciparum (isolate 3D7))
Assay: biochemical
test.readout: EC50 (nM)
# output: bare number, implied unit nM

{"compound": "Nc1ncnc2c1c(-c1ccc(-c3ccccc3)cc1)nn2CC1CCNCC1 [Compound 100]", "tested.target": "PfCDPK4 (Plasmodium falciparum (isolate 3D7))", "value.units": "nM", "reported.value": 908}
{"compound": "Cn1ncc2cc(-c3nn(CC4CCNCC4)c4ncnc(N)c34)ccc21 [Compound 121]", "tested.target": "PfCDPK4 (Plasmodium falciparum (isolate 3D7))", "value.units": "nM", "reported.value": 146}
{"compound": "CCCOc1ccc2cc(-c3nn(CC4CCNCC4)c4ncnc(N)c34)ccc2c1 [Compound 33]", "tested.target": "PfCDPK4 (Plasmodium falciparum (isolate 3D7))", "value.units": "nM", "reported.value": 21.1}
{"compound": "COc1ccc(-c2nn(C(C)(C)C)c3ncnc(N)c23)cc1C [Compound 132]", "tested.target": "PfCDPK4 (Plasmodium falciparum (isolate 3D7))", "value.units": "nM", "reported.value": 1490}
{"compound": "CC(C)(C)n1nc(-c2ccc3ccccc3c2)c2c(N)ncnc21 [Compound 2]", "tested.target": "PfCDPK4 (Plasmodium falciparum (isolate 3D7))", "value.units": "nM", "reported.value": 480}
{"compound": "CCOc1ccc2cc(-c3nn(CC4CCN(C)CC4)c4ncnc(N)c34)ccc2c1 [Compound 150]", "tested.target": "PfCDPK4 (Plasmodium falciparum (isolate 3D7))", "value.units": "nM", "reported.value": 33.7}
{"compound": "Cn1ccc2cc(-c3nn(CC4CCNCC4)c4ncnc(N)c34)ccc21 [Compound 57]", "tested.target": "PfCDPK4 (Plasmodium falciparum (isolate 3D7))", "value.units": "nM", "reported.value": 243}
{"compound": "CCCCOc1ccc2cc(-c3nn(CC4CCNCC4)c4ncnc(N)c34)ccc2c1 [Compound 35]", "tested.target": "PfCDPK4 (Plasmodium falciparum (isolate 3D7))", "value.units": "nM", "reported.value": 31.2}

Ask: Fill in EC50 for record C=CCOc1ccc2cc(-c3nn(C(C)C)c4ncnc(N)c34)ccc2c1 [Compound 41]
Reply: 19.2

Ask: Provide only the value of recorded EC50 for CC(C)n1nc(-c2ccc3c(ccn3C)c2)c2c(N)ncnc21 [Compound 20]
Reply: 231

Ask: Retrieve EC50 measured for Nc1ncnc2c1c(Cc1cccc3ccccc13)nn2CC1CCNCC1 [Compound 5h] and print it.
Reply: 154

Ask: Return EC50 (reported value) for this compound: CC(C)n1nc(-c2ccc3cc(OCc4ccncc4)ccc3c2)c2c(N)ncnc21 [Compound 55]
Reply: 175

Ask: Note EC50 for the compound shown: CCOc1ccc2cc(-c3nc(C(C)(C)C)n4ccnc(N)c34)ccc2c1 [Compound 69]
Reply: 132

Ask: Give a short answer stating reported EC50 for CC(C)n1nc(-c2ccc3cc(OCc4ccccc4)ccc3c2)c2c(N)ncnc21 [Compound 40] .
Reply: 514

Ask: Annotate the compound Nc1ncnc2c1c(-c1ccc3cc(OCc4cccc(Cl)c4)ccc3c1)nn2CC1CCNCC1 [Compound 38] with its measured EC50.
Reply: 34.9

Ask: Return reported EC50. Input compound: CCOc1ccc2cc(-c3nn(C4CCN(CC)CC4)c4ncnc(N)c34)ccc2c1 [Compound 149]
Reply: 81.6

Ask: Give recorded EC50. CC(C)n1nc(-c2ccc3c(c2)OCO3)c2c(N)ncnc21 [Compound 7u]
Reply: 1100
